subjectOfTest: T1, RSV F A L203I (RSV A, strain A2, UniProt P03420 26-574)
T1 construct: whole, on cells
procedureSummary: FACS, % binding to RSV F A variants

[
  {
    "binder": "MPK65-v2-v1.2 (antibody, V domains shown) VH: QVPLVQSGAEVKKPGESLKISCKGSGYSFINYWIGWVRQMPGKGLEWMGVIYPFDSDTKYSPSFQGHVTISADKSSNTAYVQWSSLKASDTAMYYCARFTFGIAVVTDDVSGEGQAFEIWGQGTMVTVSS VL: QIVMMQSPATLSVSPGERATLSCRASQSVAGNLAWYQQRPGQAPRLLIYGASTRATGVPARFSGSGSETEFTLTISSLQSEDFAVYYCHQYSNLPQAFGQGTRLDIK",
    "unitAbbreviation": "%",
    "% binding": 18
  },
  {
    "binder": "MPK201-v1.2 (antibody, V domains shown) VH: EVQLVQSGAEVKKPGESLKISCQGSGYSFINYWIGWVRQKPGKGLEWMGIIYPFDSETKYSPSFQGHVTFSADKSINTAYVQWSSLRASDTAMYYCARFTFGLAVTTADVSGEGQAFEIWGQGTMVTVSS VL: QIVMMQSPATLSVSPGERATLSCRASQSVAGNLAWYQQRPGQAPRLLVYGASTRASGVPARFSGSGSETEFTLTISSLQSEDFAVYYCHHYSDLPQAFGQGTRLDIK",
    "unitAbbreviation": "%",
    "% binding": 40
  },
  {
    "binder": "MPK176-v1.3 (antibody, V domains shown) VH: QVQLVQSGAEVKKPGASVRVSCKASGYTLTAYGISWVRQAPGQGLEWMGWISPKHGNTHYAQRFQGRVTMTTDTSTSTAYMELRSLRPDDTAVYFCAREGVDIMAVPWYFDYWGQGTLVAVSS VL: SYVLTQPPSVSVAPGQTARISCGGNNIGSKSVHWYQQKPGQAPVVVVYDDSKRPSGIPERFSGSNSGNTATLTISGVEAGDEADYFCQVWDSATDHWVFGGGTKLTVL",
    "unitAbbreviation": "%",
    "% binding": 56.1
  }
]
